tested on: MDA-MB-468; assay: Growth inhibition of human MDA-MB-468 cells overexpressing FAS gene after 72 hrs by MTT assay; format: functional, cell-based; settings: MDA-MB-468, 72 h
recorded_metric: IC50 (µM)
Provide only the numeric value, understood in µM.

[
  {
    "compound": "O=[N+]([O-])c1cccc(-c2csc(N/N=C\\c3ccccn3)n2)c1",
    "uom": "µM",
    "reported_value": 8.3
  }
]

The compound CC1=NC2N=NNN2[C@@H](c2ccc(OCc3ccccc3)cc2)C1C(=O)Nc1ccccc1 (stereo partly drawn) showed IC50 equal to 19.3

Consider CC1=C(C(=O)Nc2ccccn2)C(c2ccc(Br)cc2)NC(S)=N1 (stereo not drawn) . Its measured IC50 is 8.4
